B1: CPEB3 Ribozyme (parent)
chain: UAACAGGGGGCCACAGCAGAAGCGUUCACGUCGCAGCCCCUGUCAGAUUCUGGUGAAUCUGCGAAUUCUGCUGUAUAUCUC

Variants of: B1
EXPERIMENT: self-cleavage, relative activity (ratio to wild type); higher = more cleavage; in vitro, sequencing
EXPERIMENTAL_READOUT: self-cleavage
// no unit, no text: just the number

Known self-cleavage results, listed for orientation:
For the variant A3G A20U , give its reported self-cleavage.
0.41

For the variant A20G A28G , give its reported self-cleavage.
0.44

For the variant A5U U72C , give its reported self-cleavage.
1.14

For the variant A56U U80C , give its reported self-cleavage.
0.83

For the variant U31C A45G , give its reported self-cleavage.
0.52

Further cases:
For the variant A77U U78A , give its reported self-cleavage.
0.9

For the variant G10A A18U , give its reported self-cleavage.
0.15

For the variant A47G C62U , give its reported self-cleavage.
0.3
